Reported IL-8 [abs. corr.] values for the following binders.
Target or system: T1, CD27 expressed on the cell surface (HT1080_CD27 cells) (human, UniProt P26842 20-260); note: test concentration or dose not given here
T1 sequence (looked up): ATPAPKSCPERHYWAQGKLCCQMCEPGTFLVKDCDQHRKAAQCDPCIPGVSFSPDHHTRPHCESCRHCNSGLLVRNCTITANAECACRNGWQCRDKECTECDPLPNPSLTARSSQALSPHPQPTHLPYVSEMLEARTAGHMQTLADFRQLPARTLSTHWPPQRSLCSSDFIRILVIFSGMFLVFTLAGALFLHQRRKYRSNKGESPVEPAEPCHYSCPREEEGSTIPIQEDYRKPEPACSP
Experiment: cell-based or functional assay
Attribute measured: IL-8 [abs. corr.] (abs. corr.)

>>> readout_value("P018.S.04.A.B05 (antibody, V domains shown, V regions on human Ig constant parts; also called AB27_68) VH: QSVEESGGRLVTPGTPLTLTCTASGFTLSSFYMSWVRQAPGKGLEWIGFIHGHGNTYYASWAKGRFTISKTSTTVDLKIASPTTEDTATYFCARGGHPNMDLWGQGTLVTISS VL: DIVMTQTPSSVEAAVGGTVTIKCQASQNINNYLAWYQQKPGQPPKLLIYYASTLASGVSSRFKGSGSGTEFTLTISDLESDDAATYYCQCSYYDASIFGAFGGGTEVVVR")
0.308
>>> readout_value("P018.S.03.A.C02 (antibody, V domains shown, V regions on human Ig constant parts; also called AB27_44) VH: QSVEESGGRLVTPGTPLTLTCTVSRFSLSTSTMTWVRQAPGKGLEWIGIINGGGSAYYANWAKGRFTISKTSTTVDLKITSPTTEDTATYFCARSYDSYDDIYGTSRLYAFDPWGPGTLVTVSS VL: AYDMTQTPASVEVVVGGTVTISCQASESIYANLAWYQQKPGQPPKLLIYRASYLASGVSSRFKGSGSGTQFTLTISGVESADAATYYCQQGYSSSNVDNSFGGGTEVVVK")
0.373
